target: human ether-à-go-go-related gene (hERG) potassium channel (human); assay: primary screen, population patch clamp on CHO cells stably expressing hERG; higher = less effect of the substance;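 also: peak tail current of the secondary pulse compared with the same well before compound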
Hit rate of the full screen: of about 310,000 compounds, about 14,000 (4.5%) showed an effect of 50% or more. Effects have a minus sign here. This excerpt belongs to a sample that is enriched for strong results.
Attribute measured: hERG current change (%, negative = inhibition) at 10uM
Your answer should be a number followed by the unit of measure.

Worked set:
Task: What is its hERG current change (%, negative = inhibition) at 10uM for human ether-à-go-go-related gene (hERG) potassium channel (human)? Entry: Cl.NC(=O)c1c(NC(=O)Cc2ccccc2)sc2c1CCN(Cc1ccccc1)C2
Output: 7.96%

Task: What about CC(=O)Nc1ccc(NC(=O)c2cccc(S(=O)(=O)N(C)C3CCCCC3)c2)cc1 ?
Output: 6.97%

Task: What about O=C(c1ccc2c(Cl)c3c(nc2c1)CCCC3)N1CCC(N2CCCCC2)CC1 ?
Output: -46%

Task: What about CNC(=O)c1c(NC(=O)c2ccc(S(=O)(=O)N3CCCCC3)cc2)sc2c1CCN(C(C)C)C2 ?
Output: -65.8%

Task: What about CC(c1nnc(SCC(=O)N2CC(=O)Nc3ccccc32)n1Cc1ccccc1)N(C)C (stereo not shown) ?
Output: 5.73%

Further cases:
Task: What is its hERG current change (%, negative = inhibition) at 10uM for human ether-à-go-go-related gene (hERG) potassium channel (human)? Entry: Cc1ccc(NC(=O)c2cccc(S(=O)(=O)N(C)C3CCCCC3)c2)nc1
Output: -34.7%

Task: What about CN1CCc2c(sc(NC(=O)c3ccc(C(=O)c4ccccc4)cc3)c2C(N)=O)C1.Cl ?
Output: 11.5%

---

molecular target: human ether-à-go-go-related gene (hERG) potassium channel (human, UniProt Q12809); assay: primary screen, population patch clamp on CHO cells stably expressing hERG; higher = less effect of the substance;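 also: peak tail current of the secondary pulse compared with the same well before compound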
Sequence (Q12809 whole entry, looked up): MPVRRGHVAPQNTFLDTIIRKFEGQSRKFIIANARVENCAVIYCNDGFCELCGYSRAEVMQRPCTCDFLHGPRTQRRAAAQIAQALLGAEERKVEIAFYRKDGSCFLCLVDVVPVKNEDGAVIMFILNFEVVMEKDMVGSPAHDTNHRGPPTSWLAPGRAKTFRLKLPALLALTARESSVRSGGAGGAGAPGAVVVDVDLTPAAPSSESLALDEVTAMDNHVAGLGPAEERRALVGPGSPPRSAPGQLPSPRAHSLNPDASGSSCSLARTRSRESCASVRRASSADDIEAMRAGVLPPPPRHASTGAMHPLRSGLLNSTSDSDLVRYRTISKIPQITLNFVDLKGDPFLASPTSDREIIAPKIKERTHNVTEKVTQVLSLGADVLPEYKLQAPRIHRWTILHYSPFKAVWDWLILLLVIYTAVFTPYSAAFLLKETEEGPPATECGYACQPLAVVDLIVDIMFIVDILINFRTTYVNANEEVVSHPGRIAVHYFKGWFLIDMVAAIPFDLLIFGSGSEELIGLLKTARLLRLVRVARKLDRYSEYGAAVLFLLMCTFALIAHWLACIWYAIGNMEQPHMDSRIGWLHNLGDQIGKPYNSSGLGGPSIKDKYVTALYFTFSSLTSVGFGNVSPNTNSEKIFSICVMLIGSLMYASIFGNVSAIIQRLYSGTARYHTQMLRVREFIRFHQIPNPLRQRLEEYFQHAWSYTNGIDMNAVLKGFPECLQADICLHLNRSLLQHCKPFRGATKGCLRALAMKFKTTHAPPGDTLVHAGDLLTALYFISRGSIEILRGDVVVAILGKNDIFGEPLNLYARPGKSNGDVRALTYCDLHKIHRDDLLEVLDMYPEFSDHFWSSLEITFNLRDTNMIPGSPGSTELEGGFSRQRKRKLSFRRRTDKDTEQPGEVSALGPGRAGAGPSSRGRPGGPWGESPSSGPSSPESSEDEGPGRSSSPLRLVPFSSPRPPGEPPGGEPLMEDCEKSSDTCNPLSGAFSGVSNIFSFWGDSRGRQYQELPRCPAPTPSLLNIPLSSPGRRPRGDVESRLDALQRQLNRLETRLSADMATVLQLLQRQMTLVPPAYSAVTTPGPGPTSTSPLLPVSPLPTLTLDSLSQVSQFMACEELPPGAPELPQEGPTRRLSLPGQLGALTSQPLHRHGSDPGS
Out of some 310,000 compounds screened, about 14,000 (4.5%) showed an effect of 50% or more. The effect is printed as a negative number. The list comes from a sample in which strong results are over-represented; it also holds close analogues and randomly drawn compounds.
Attribute measured: hERG current change (%, negative = inhibition) at 10uM (%)
Express the result in % but write the number alone.

Worked set:
Task: Record request: hERG current change (%, negative = inhibition) at 10uM value, item CCCC(=O)N1CCN(c2nc3ccc(Cl)cc3s2)CC1
Output: -70.2

Task: What about COc1ccc(C(CNC(=O)C(=O)Nc2ccc3c(c2)OCCO3)N2CCN(C)CC2)cc1 (stereo not shown) ?
Output: -45.1

Task: What about COc1cc(CC(=O)OCC(=O)Nc2ncc(Cl)cc2Cl)cc(OC)c1OC ?
Output: 7.58

Task: What about CCOC(=O)N1CCN(C(=O)c2cc(COc3cccc(C(F)(F)F)c3)on2)CC1 ?
Output: -76.7

Task: What about CCOc1cc(/C=N/NC(N)=O)cc(Br)c1OCC(=O)Nc1cccc2ccccc12 ?
Output: 18.4

Task: What about CCOc1cc(/C=N/NC(N)=O)cc(Br)c1OCC(=O)Nc1ccccc1C ?
Output: -65.7

Task: What about COC(=O)c1ccc(CN(c2ccccn2)S(=O)(=O)c2ccccc2)cc1 ?
Output: 14.1

Task: What about CN1CCN(C(CNC(=O)C(=O)Nc2ccc3c(c2)OCCO3)c2ccc(F)cc2)CC1 (stereo not shown) ?
Output: -46.2

Task: What about CN(Cc1cccnc1)Cc1cn(Cc2ccccc2)nc1-c1ccc2c(c1)OCO2 ?
Output: -11.7

Task: What about CCOc1cc(/C=N/O)cc(Br)c1OCC(=O)NCc1ccccc1 ?
Output: 1.7

Further cases:
Task: Record request: hERG current change (%, negative = inhibition) at 10uM value, item CCOc1cc(/C=N/NC(N)=O)cc(Br)c1OCc1ccccc1
Output: 3.4

Task: What about CC(CNC(=O)c1cc(COc2c(F)cccc2F)on1)Oc1cccnc1 (stereo not shown) ?
Output: -18.6

---

target: human ether-à-go-go-related gene (hERG) potassium channel (human); experiment: primary screen, population patch clamp on CHO cells stably expressing hERG; higher = less effect of the substance;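 also: peak tail current of the secondary pulse compared with the same well before compound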
Hit rate of the full screen: of about 310,000 compounds, about 14,000 (4.5%) showed an effect of 50% or more. Effects have a minus sign here. Shown is part of a subset that was picked to be rich in strong results.
Decide by hERG current change (%, negative = inhibition) at 10uM: equal to or exceeding -10% means condition met, less means condition not met.

// below: answered molecules
Task: Say whether Cc1cccc(N(CC(=O)NCCSCc2ccccc2)S(C)(=O)=O)c1 shows hERG current change (%, negative = inhibition) at 10uM of -10% or more.
Output: condition met

Task: What about O=C1CCc2cc(S(=O)(=O)N3CCCC3C(=O)NC3CCCCCCC3)ccc2N1 (stereo not drawn) ?
Output: condition not met

Task: What about O=C(O)CC1c2ccccc2CCN1S(=O)(=O)c1ccccc1 (stereo not drawn) ?
Output: condition met

Task: What about Cc1cc(C)nc(/N=C(\N)Nc2ccccc2-c2ccccc2)n1 ?
Output: condition not met

Task: What about COc1ccc(NC(=O)C2CCCN2S(=O)(=O)c2ccc3c(c2)CCC(=O)N3)cc1Cl (stereo not drawn) ?
Output: condition not met

Task: What about COc1ccc(C(=O)/C=C/C(=O)N(Cc2ccccc2)C(C(=O)NC2CCCCC2)c2ccncc2)c(O)c1 (stereo not drawn) ?
Output: condition not met

Task: What about CCCCCn1c(CN2CCN(c3cccc(Cl)c3)CC2)nc2c1c(=O)n(C)c(=O)n2C ?
Output: condition not met

Task: What about CCOc1ccc(N/C(=N/c2nc(C)cc(C)n2)NC(C)=O)cc1 ?
Output: condition not met

Task: What about COc1ccc(C(CCN2CCCCC2)c2c(O)cc(OC)cc2OC)cc1 (stereo not drawn) ?
Output: condition not met

Task: What about CCc1noc(C)c1C(=O)Nc1nnc(C(CC)CC)s1 ?
Output: condition not met

Further cases:
Task: Say whether O=C(NCc1ccccc1)c1cccc(COc2ccc(Cl)cc2)c1 shows hERG current change (%, negative = inhibition) at 10uM of -10% or more.
Output: condition met

Task: What about O=C(Nc1cccc(-c2csc(Nc3cccc(C(F)(F)F)c3)n2)c1)c1cc([N+](=O)[O-])cc(C(F)(F)F)c1 ?
Output: condition met

Task: What about CCN1CCCC1CNC(=O)CN1C(=O)COc2ccc(C)cc21 (stereo not drawn) ?
Output: condition not met

Task: What about CCCCn1c(CN2CCN(c3ccccc3)CC2)nc2c1c(=O)n(C)c(=O)n2C ?
Output: condition not met

Task: What about Cc1cc(Nc2nnnn2-c2ccccc2)n(-c2ccccc2)n1 ?
Output: condition not met

Task: What about COc1ccc(C(CCN2CCOCC2)c2c(O)cc(OC)cc2OC)cc1 (stereo not drawn) ?
Output: condition not met

Task: What about Cc1cc(C)nc(/N=C(\N)Nc2ccc(S(N)(=O)=O)cc2)n1 ?
Output: condition met

Task: What about O=C(CCC(=O)c1ccc(F)cc1)Nc1ccccc1Cl ?
Output: condition met

Task: What about CCc1ccc(N/C(=N/c2nc(C)cc(C)n2)NC(C)=O)cc1 ?
Output: condition not met

Task: What about CCCn1c(CN2CCN(c3cccc(Cl)c3)CC2)nc2c1c(=O)n(C)c(=O)n2C ?
Output: condition not met

Task: What about CSc1nc(-c2ccccc2)nc(N2CCCC2)c1C(C)=O ?
Output: condition not met

Task: What about CCOc1ccc(NC(=O)[C@@H](NC(=O)c2ccccc2)[C@@H](C)CC)cc1 ?
Output: condition met

Task: What about CCN(CC)CCOC(=O)c1ccc2c(c1)OCCO2.Cl ?
Output: condition not met

Task: What about Cc1ccc(N(CC(=O)N2CCCCC2)S(=O)(=O)c2ccc(C)cc2)cc1 ?
Output: condition not met

Task: What about COc1ccc2[nH]cc(CCN3C(=O)CCC3=O)c2c1 ?
Output: condition met

Task: What about CCN(CC)CC(O)Cn1c(-c2cccc(Cl)c2)nc2cc(C)c(C)cc21 (stereo not drawn) ?
Output: condition not met

Task: What about C=CCn1c(SCC(N)=O)nnc1-c1ccccc1O ?
Output: condition met

Task: What about CCN(CC)CCOC(=O)c1cccc(Br)c1.Cl ?
Output: condition not met

Task: What about COc1cc(O)c(C(CCN2CCCCC2)c2ccc(N(C)C)cc2)c(OC)c1 (stereo not drawn) ?
Output: condition met

Task: What about N#CC(C#N)=CN=c1ccn(Cc2ccc(Cl)cc2Cl)cc1 ?
Output: condition met

Task: What about COc1ccc(C(=O)NC(Nc2ccc(C)cc2)C(Cl)(Cl)Cl)cc1 (stereo not drawn) ?
Output: condition met

Task: What about CC(=O)N/C(=N/c1nc(C)cc(C)n1)Nc1ccc(NC(C)=O)cc1 ?
Output: condition met

---

Catalogue of molecules with associated hERG current change (%, negative = inhibition) at 10uM
Target: human ether-à-go-go-related gene (hERG) potassium channel (human);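 also: peak tail current of the secondary pulse compared with the same well before compound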
Experiment: primary screen, population patch clamp on CHO cells stably expressing hERG; higher = less effect of the substance
Procedure: Briefly, Chinese hamster ovary (CHO) cells stably expressing the hERG channel were dislodged from tissue culture flasks and dispensed into PPC plates. […] During the recording, background leak currents were estimated by a 100 ms step to -80 mV from an initial holding potential of -70 mV and subtracted from the subsequent current measurement. The campaign was conducted in two phases using slight differences in recording protocol. […]
Screen size: about 310,000 compounds; about 14,000 (4.5%) showed an effect of 50% or more. Effects have a minus sign here. What follows is part of a selection rich in strong results, with near analogues and random picks from the rest.

Worked set:
Task: Record request: hERG current change (%, negative = inhibition) at 10uM value, item CN(Cc1cn(-c2ccccc2)nc1-c1ccc2c(c1)OCO2)Cc1nccn1C
Output: -16.1%

Task: What about CCOc1ccc(N(C)Cc2cc(=O)oc3ccc(OCC)cc23)cc1 ?
Output: -1.17%

Task: What about Cl.OC(COc1ccc2c(c1)OCO2)CN1CCc2ccccc2C1 (centres unmarked) ?
Output: -28.5%

Task: What about O=S(=O)(c1ccc(OCC(O)CN2CCc3ccccc3C2)cc1)N1CCOCC1 (centres unmarked) ?
Output: -4.43%

// next entry
Task: Record request: hERG current change (%, negative = inhibition) at 10uM value, item CCN(CCn1cccn1)Cc1ccccc1OCC(O)CN1CCc2ccccc2C1 (centres unmarked)
Output: -51.5%
